# TEST TARGET: human DGKα (Homo sapiens (Human))
# PROTOCOL: DGKα ADPGLO assay (detergent/lipid micelle substrate)
# Assay type: biochemical
# CONDITION: truncated DGK alpha; read-out: DGK alpha ADPGLO (Truncated) IC50
MEASUREMENT LABEL: IC50 (nM)

COMPOUND: CC[C@H]1CN(C(C)c2ccc(CN3CCCCC3)cc2)[C@H](CC)CN1c1nc(=O)n(C)c2ccc(C#N)nc12 (some centres unmarked) [Example 282]
RESULT UNIT: nM
OBSERVED: 150
//
COMPOUND: CC[C@H]1CN(C(C)c2ccc(C3(C#N)CC3)cc2)[C@H](CC)CN1c1nc(=O)n(C)c2ccc(C#N)nc12 (some centres unmarked) [Example 263]
RESULT UNIT: nM
OBSERVED: 290
//
COMPOUND: CC[C@H]1CN(C(C)c2ccc3oc(C4CC4)nc3c2)[C@H](CC)CN1c1nc(=O)n(C)c2ccc(C#N)nc12 (some centres unmarked) [Example 253]
RESULT UNIT: nM
OBSERVED: 3800
//
COMPOUND: CCC(c1ccc(C#N)cc1)N1C[C@H](CC)N(c2nc(=O)n(C)c3ccc(C#N)nc23)C[C@H]1CC (some centres unmarked) [Example 221]
RESULT UNIT: nM
OBSERVED: 2
//
COMPOUND: CCC(c1ccc(C2CC2)cc1F)N1C[C@H](C)N(c2nc(=O)n(C)c3ccc(C#N)nc23)C[C@H]1CC (some centres unmarked) [Example 303]
RESULT UNIT: nM
OBSERVED: 1770
//
COMPOUND: CC[C@H]1CN(C(C)c2ccc(C3(C#N)CC3)cc2)[C@H](CC)CN1c1nc(=O)n(C)c2ccc(C#N)nc12 (some centres unmarked) [Example 264]
RESULT UNIT: nM
OBSERVED: 750
//
COMPOUND: CCC(c1ccc(OC(F)F)cc1)N1C[C@H](CC)N(c2nc(=O)n(C)c3ccc(C#N)nc23)C[C@H]1CC (some centres unmarked) [Example 222]
RESULT UNIT: nM
OBSERVED: 2
//
COMPOUND: CC[C@H]1CN(C(C)c2cnc(N3CCOCC3)nc2)[C@H](CC)CN1c1nc(=O)n(C)c2ccc(C#N)nc12 (some centres unmarked) [Example 206]
RESULT UNIT: nM
OBSERVED: 3980
//
COMPOUND: CCC(c1ccc(C2CC2)cc1)N1C[C@H](CC)N(c2nc(=O)n(C)c3ccc(C#N)nc23)C[C@H]1CC (some centres unmarked) [Example 201]
RESULT UNIT: nM
OBSERVED: 160
//
COMPOUND: CCC(c1ccc(C(F)(F)F)cc1)N1C[C@H](CC)N(c2nc(=O)n(C)c3ccc(C#N)nc23)C[C@H]1CC (single isomer, unassigned) [Example 6]
RESULT UNIT: nM
OBSERVED: 58
//
COMPOUND: CCC(c1ccc(OC(C)C)cc1)N1C[C@H](CC)N(c2nc(=O)n(C)c3ccc(C#N)nc23)C[C@H]1CC (some centres unmarked) [Example 234]
RESULT UNIT: nM
OBSERVED: 36
//
COMPOUND: CC[C@@H]1CN(c2nc(=O)n(C)c3ccc(C#N)nc23)[C@@H](C)CN1C(C)c1ccc2oc(=O)n(C)c2c1 (some centres unmarked) [Example 299]
RESULT UNIT: nM
OBSERVED: 1280
//
COMPOUND: CCCC(c1ccc(C(F)(F)F)cc1)N1C[C@H](CC)N(c2nc(=O)n(C)c3ccc(C#N)nc23)C[C@H]1CC (some centres unmarked) [Example 243]
RESULT UNIT: nM
OBSERVED: 6
//
COMPOUND: CC[C@H]1CN(C(c2ccc(F)cc2)c2csc(C(F)(F)F)n2)[C@H](CC)CN1c1nc(=O)n(C)c2ccc(C#N)nc12 (some centres unmarked) [Example 211]
RESULT UNIT: nM
OBSERVED: 46

###

The entries below come with measured pIC50 values attached.
# TEST TARGET: human DGKα (Homo sapiens (Human), UniProt P23743)
# Sequence (P23743 whole entry, looked up): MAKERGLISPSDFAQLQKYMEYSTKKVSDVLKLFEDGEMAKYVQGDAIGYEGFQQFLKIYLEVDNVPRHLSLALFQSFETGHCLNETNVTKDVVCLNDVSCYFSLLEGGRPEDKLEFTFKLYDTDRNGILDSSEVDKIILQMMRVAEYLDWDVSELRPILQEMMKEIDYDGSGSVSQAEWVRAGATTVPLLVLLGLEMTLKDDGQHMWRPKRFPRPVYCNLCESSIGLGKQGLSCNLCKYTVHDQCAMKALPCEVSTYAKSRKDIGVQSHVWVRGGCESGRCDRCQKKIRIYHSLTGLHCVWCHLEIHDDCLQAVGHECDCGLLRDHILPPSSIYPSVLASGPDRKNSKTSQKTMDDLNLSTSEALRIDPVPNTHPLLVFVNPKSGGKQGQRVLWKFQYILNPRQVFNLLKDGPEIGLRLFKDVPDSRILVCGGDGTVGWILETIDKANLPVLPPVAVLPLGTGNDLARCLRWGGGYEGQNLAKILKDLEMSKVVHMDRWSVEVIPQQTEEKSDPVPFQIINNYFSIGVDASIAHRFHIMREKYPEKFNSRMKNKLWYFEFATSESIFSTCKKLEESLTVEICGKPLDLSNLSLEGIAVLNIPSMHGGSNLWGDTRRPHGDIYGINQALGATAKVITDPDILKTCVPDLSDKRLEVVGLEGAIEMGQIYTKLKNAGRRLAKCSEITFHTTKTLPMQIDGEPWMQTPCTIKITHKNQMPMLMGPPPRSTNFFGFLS
# PROTOCOL: DGKα LIPGLO assay (extruded liposome substrate, ADP-Glo luminescence)
# Format: biochemical
# CONDITION: liposome assay; read-out: DGK alpha LIPGLO IC50
pIC50: −log10 of the molar value.
MEASUREMENT LABEL: pIC50

COMPOUND: CC[C@H]1CN(C(C)c2ccc(OC)cc2)[C@H](CC)CN1c1nc(=O)n(C)c2ccc(C#N)nc12 (single isomer, unassigned) [Example 16]
MEASUREMENT LABEL: pIC50
OBSERVED: 7.35
//
COMPOUND: CC(c1ccc(OC(F)(F)F)cc1F)N1C[C@H](C)N(c2nc(=O)n(C)c3ccc(C#N)nc23)C[C@H]1C (single isomer, unassigned) [Example 143]
MEASUREMENT LABEL: pIC50
OBSERVED: 5.88
//
COMPOUND: CC[C@@H]1CN(c2nc(=O)n(C)c3ccc(C#N)nc23)[C@@H](C)CN1C(c1ccc(F)cc1)c1cnc(C2CC2)s1 (single isomer, unassigned) [Example 103]
MEASUREMENT LABEL: pIC50
OBSERVED: 6.77
//
COMPOUND: CC[C@H]1CN(C(C)c2ccc(C(F)(F)F)cc2)[C@H](C)CN1c1nc(=O)n(C)c2ccc(C#N)nc12 (stereo partly drawn) [Example 116]
MEASUREMENT LABEL: pIC50
OBSERVED: 6.00
//
COMPOUND: CC[C@@H]1CN(c2nc(=O)n(C)c3ccc(C#N)nc23)[C@@H](C)CN1C(C)c1ccc(OCC2CC2)cc1F (single isomer, unassigned) [Example 70]
MEASUREMENT LABEL: pIC50
OBSERVED: 6.08
//
COMPOUND: CC[C@H]1CN(C(C)c2ccc(C3CC3)cc2)[C@H](CC)CN1c1nc(=O)n(C)c2ccc(C#N)nc12 (single isomer, unassigned) [Example 28]
MEASUREMENT LABEL: pIC50
OBSERVED: 5.80

###

# TEST TARGET: human DGKα (Homo sapiens (Human))
# PROTOCOL: DGKα ADPGLO assay (detergent/lipid micelle substrate)
# Assay type: biochemical
# CONDITION: truncated DGK alpha; read-out: DGK alpha ADPGLO (Truncated) IC50
pIC50: −log10 of the molar value.
Catalogue of pIC50 readings, one per entry.
MEASUREMENT LABEL: pIC50

COMPOUND: CC[C@H]1CN(C(C)c2ccc(C(C)(C)N3CCOCC3)cc2)[C@H](CC)CN1c1nc(=O)n(C)c2ccc(C#N)nc12 (stereo partly shown) [Example 247]
OBSERVED: 5.23

COMPOUND: CC[C@H]1CN(C(c2ccc(OC)cc2)C(C)C)[C@H](CC)CN1c1nc(=O)n(C)c2ccc(C#N)nc12 (stereo partly shown) [Example 250]
OBSERVED: 6.48

COMPOUND: CCC(c1ccc(C2CC2)cc1)N1C[C@H](C)N(c2nc(=O)n(C)c3ccc(C#N)nc23)C[C@H]1CC (stereo partly shown) [Example 301]
OBSERVED: 6.89

COMPOUND: CC[C@H]1CN(C(C)c2ccc(CO)cc2)[C@H](CC)CN1c1nc(=O)n(C)c2ccc(C#N)nc12 (stereo partly shown) [Example 271]
OBSERVED: 8.00

###

# TEST TARGET: human DGKζ (Homo sapiens (Human), UniProt Q13574)
# Sequence (Q13574 other isoform, or with tags, fused parts or gaps): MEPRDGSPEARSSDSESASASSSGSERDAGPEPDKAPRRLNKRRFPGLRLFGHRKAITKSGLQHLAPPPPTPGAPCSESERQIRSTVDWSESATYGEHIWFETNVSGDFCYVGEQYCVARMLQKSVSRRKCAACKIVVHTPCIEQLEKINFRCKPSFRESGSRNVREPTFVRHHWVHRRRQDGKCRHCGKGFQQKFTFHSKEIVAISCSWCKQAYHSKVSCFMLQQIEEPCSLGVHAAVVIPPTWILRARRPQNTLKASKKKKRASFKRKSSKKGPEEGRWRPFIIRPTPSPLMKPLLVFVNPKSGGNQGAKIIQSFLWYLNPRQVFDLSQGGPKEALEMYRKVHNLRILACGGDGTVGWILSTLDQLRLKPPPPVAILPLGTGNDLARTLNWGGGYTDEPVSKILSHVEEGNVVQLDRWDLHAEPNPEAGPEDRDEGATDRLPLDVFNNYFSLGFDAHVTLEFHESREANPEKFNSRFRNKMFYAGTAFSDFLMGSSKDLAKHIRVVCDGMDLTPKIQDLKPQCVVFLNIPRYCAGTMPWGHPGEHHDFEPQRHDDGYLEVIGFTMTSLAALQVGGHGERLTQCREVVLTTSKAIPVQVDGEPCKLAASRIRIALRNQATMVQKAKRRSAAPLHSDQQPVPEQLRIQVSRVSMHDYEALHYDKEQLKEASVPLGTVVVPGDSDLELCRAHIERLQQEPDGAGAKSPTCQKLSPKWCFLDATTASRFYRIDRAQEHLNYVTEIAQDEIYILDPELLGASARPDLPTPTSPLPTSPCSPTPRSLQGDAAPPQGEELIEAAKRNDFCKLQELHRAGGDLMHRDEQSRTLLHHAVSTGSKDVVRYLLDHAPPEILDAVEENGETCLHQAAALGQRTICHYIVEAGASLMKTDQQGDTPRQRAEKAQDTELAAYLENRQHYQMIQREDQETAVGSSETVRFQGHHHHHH
# PROTOCOL: DGKζ LIPGLO assay (extruded liposome substrate, ADP-Glo luminescence)
# Assay type: biochemical
# CONDITION: liposome assay; read-out: DGK zeta LIPGLO IC50
Listed here are compounds together with their documented log10 IC50.
MEASUREMENT LABEL: log10 IC50 (log10 of the value in nM)

COMPOUND: CCC(c1ccc(OC(F)(F)F)cc1F)N1C[C@H](C)N(c2nc(=O)n(C)c3ccc(C#N)nc23)C[C@H]1C (single isomer, unassigned) [Example 152]
log10 IC50: 1.96
//
COMPOUND: CC[C@@H]1CN(c2nc(=O)n(C)c3ccc(C#N)nc23)[C@@H](C)CN1C(c1ccc(F)cc1)c1ccon1 (single isomer, unassigned) [Example 74]
log10 IC50: 2.98
//
COMPOUND: CC[C@H]1CN(C(C)c2ccc(CN3CCN(C(C)=O)CC3)cc2)[C@H](CC)CN1c1nc(=O)n(C)c2ccc(C#N)nc12 (stereo partly drawn) [Example 284]
log10 IC50: 4.40
//
COMPOUND: CC[C@@H]1CN(c2nc(=O)n(C)c3ccc(C#N)nc23)[C@@H](C)CN1C(C)c1ccc(C2CC2)cc1F (single isomer, unassigned) [Example 91]
log10 IC50: 1.64
//
COMPOUND: COC[C@@H]1CN(c2nc(=O)n(C)c3ccc(C#N)nc23)[C@@H](C)CN1C(C)c1ccc(C(F)(F)F)cc1 (single isomer, unassigned) [Example 175]
log10 IC50: 2.92
//
COMPOUND: CCC(c1ccc(C2CC2)cc1F)N1C[C@H](C)N(c2nc(=O)n(C)c3ccc(C#N)nc23)C[C@H]1CC (stereo partly drawn) [Example 303]
log10 IC50: 3.71
//
COMPOUND: CC[C@@H]1CN(c2nc(=O)n(C)c3ccc(C#N)nc23)[C@@H](C)CN1C(C)c1ccc(OC(F)(F)F)cc1 (single isomer, unassigned) [Example 49]
log10 IC50: 2.93
//
COMPOUND: CC[C@H]1CN(C(C)c2ccc(C(F)(F)F)cc2F)[C@H](CC)CN1c1nc(=O)n(C)c2ccc(C#N)nc12 (single isomer, unassigned) [Example 26]
log10 IC50: 2.32
//
COMPOUND: CC[C@@H]1CN(c2nc(=O)n(C)c3ccc(C#N)nc23)[C@@H](CC)CN1Cc1ccc(OC(F)(F)F)cc1
log10 IC50: 2.26
//
COMPOUND: CCC(c1ccc(OC(F)(F)F)cc1)N1C[C@H](CC)N(c2nc(=O)n(C)c3ccc(C#N)nc23)C[C@H]1CC (single isomer, unassigned) [Example 37]
log10 IC50: 2.67
//
COMPOUND: CC[C@H]1CN(C(C)c2ccc(C(=O)OC)cc2)[C@H](CC)CN1c1nc(=O)n(C)c2ccc(C#N)nc12 (stereo partly drawn) [Example 265]
log10 IC50: 2.57
//
COMPOUND: CCC(c1ccc(OC(F)F)cc1)N1C[C@H](C)N(c2nc(=O)n(C)c3ccc(C#N)nc23)C[C@H]1CC (single isomer, unassigned) [Example 77]
log10 IC50: 1.15

Reference source for all entries: patent US11584747B2
